Reference for the values: patent US11638706B2

# Tested on: Huntingtin protein (HTT)
# EXPERIMENT SUMMARY: Endogenous Huntingtin Protein Assay (MSD electrochemiluminescence ELISA; MW1 or MAB2166 capture, #5656S detection)
# Type: cell-based, human
pIC50: −log10 of the molar value.
MEASURED PARAMETER: pIC50

COc1cc(-c2cn[nH]c2)ccc1-c1nnc(N(C)C2CC(C)(C)NC(C)(C)C2)s1
6.30 to 7.00
Oc1cc(-c2cn[nH]c2)ccc1-c1ccc(NC2CCNCC2)nn1
6.30 to 7.00
CC1(C)CC(Oc2ccc(-c3nc(-c4cn[nH]c4)ncc3N)nn2)CC(C)(C)N1
5.05 to 5.52
CC1(C)CC(Oc2ccc(-c3ccc(-n4cc([N+](=O)[O-])cn4)cc3O)nn2)CC(C)(C)N1
≥ 7.00

Request: For Huntingtin protein (HTT), give pIC50 of the listed molecule: Cc1cnc(-c2ccc(-c3ccc(N(C)C4CC(C)(C)NC(C)(C)C4)nn3)c(O)c2)o1
Result: ≥ 7.00

Request: For Huntingtin protein (HTT), give pIC50 of the listed molecule: CC1(C)CC(Oc2ccc(-c3ccc(-c4cn[nH]c4)cc3C(F)F)nn2)CC(C)(C)N1
Result: 5.05 to 5.52

Request: For Huntingtin protein (HTT), give pIC50 of the listed molecule: CC1(C)CC(Oc2ccc(-c3cc4ccccc4cc3O)nn2)CC(C)(C)N1
Result: 6.30 to 7.00

Request: For Huntingtin protein (HTT), give pIC50 of the listed molecule: CN(c1ccc(-c2ccc(-c3cn[nH]c3)cc2O)nn1)C1C[C@H]2CC[C@@H](C1)N2 (stereo partly drawn)
Result: ≥ 7.00

Request: For Huntingtin protein (HTT), give pIC50 of the listed molecule: CN(c1ccc(-c2cc3cncnc3cc2O)nn1)C1CC(C)(C)NC(C)(C)C1
Result: 6.30 to 7.00

Request: For Huntingtin protein (HTT), give pIC50 of the listed molecule: COc1cc(Cl)ccc1-c1ccc(OC2CC(C)(C)NC(C)(C)C2)nn1
Result: 5.05 to 5.52

Request: For Huntingtin protein (HTT), give pIC50 of the listed molecule: CC1(C)CC(Oc2ccc(-c3ccc4nccn4c3)nn2)CC(C)(C)N1
Result: 5.05 to 5.52

Request: For Huntingtin protein (HTT), give pIC50 of the listed molecule: Oc1cc(-c2cn[nH]c2)ccc1-c1ccc(N2C[C@H]3CNC[C@H]3C2)nn1
Result: ≥ 7.00
